Where do these numbers come from? They come from paper PMC6218473.

B1: NKR-P1B tetramers (biotinylated NKR-P1B on streptavidin) [modified: biotin on the BirA tag; biotin on the BirA tag] [mouse] / Clr-b on transfected HEK293T cells [mouse] (parent)
chain 1: SAKLECPQDWLSHRDKCFHVSQVSNTWKECRIDCDKKGATLLLIQDQEELRFLLDSIKEKYNSFWIGLSYTLTDMNWKWINGTAFNSDVLKITGVTENGSCAAISGEKVTSEGCSSDNRWICQKELN
chain 2: MCVTKASLPMLSPTGSPQEVEVGKILQGKRHGTISPESCAKLYCYYGVIMVLTVAVIALSVALSATKTEQIPVNKTYAACPQNWIGVENKCFYFSEYPSNWTFAQAFCMAQEAQLARFDNQDELNFLMRYKANFDSWIGLHRESSEHPWKWTDNTEYNNTIPIRGEERFAYLNNNGISSTRIYSLRMWICSKLNSYSLHCQTPFFPS

variants of: B1; experiment: flow cytometry on cells (PE-tetramer staining); conditions: with Clr-b on transfected HEK293T cells [mouse]; HEK293T cells stained 48 h after transfection with Clr-b pIRES2-EGFP; parent: 3.14e+03
Reported response values for the following variants.

>>> result("chain 1 D117A")
"232 MFI"
>>> result("chain 1 T96A")
"208 MFI"
>>> result("chain 1 S115A")
"178 MFI"
>>> result("chain 1 S116R")
"198 MFI"
>>> result("chain 1 R119A")
"238 MFI"
>>> result("chain 1 D74A")
"212 MFI"

Switching to the query record.
Query chain 1 S111A yields response of 229 MFI
